test: in vivo; conditions: male, CD-1, mouse, iv, 1 mg/kg

{"compound": "CC12CC3CC(C(=O)N[C@H]4CC[C@H](N)CC4)(C1)CC(c1ccccc1)(C3)C2.Cl (stereo partly shown) [Example A78]", "Vd": "13.9 L/kg"}

----------
tested on: EBOV mucin-domain-deleted glycoprotein pseudotyped VSV; assay: microbe, parasite or virus in culture; format: cell-based, Zaire ebolavirus; conditions: Zaire ebolavirus, Vero, read-out: EC50 Pseudotype Assays EBOV

{"molecule": "OCCN1CCN(CC(O)COc2ccc(C34CC5CC(CC(C5)C3)C4)cc2)CC1 (stereo not drawn)", "EC50, nM": 90}
{"molecule": "CC12CC3CC(C(=O)NC4CCNCC4)(C1)CC(c1ccccc1)(C3)C2 (stereo not drawn)", "EC50, nM": 40}
{"molecule": "CC1CCN(CC(O)COc2ccc(C34CC5CC(CC(C5)C3)C4)cc2)CC1 (stereo not drawn)", "EC50, nM": 50}
{"molecule": "CN(C)CCCNc1nc(C23CC4CC(CC(C4)C2)C3)cs1", "EC50, nM": 170}
{"molecule": "CCC12CC3CC(C(=O)NC4CCNCC4)(C1)CC(c1ccccc1)(C3)C2 (stereo not drawn)", "EC50, nM": 20}
{"molecule": "CN1CCC(NC(=O)C23CC4CC(C2)CC(c2ccccc2)(C4)C3)CC1", "EC50, nM": 120}
{"molecule": "CC1CCCC(C)N1CC(O)COCCC12CC3CC(CC(C3)C1)C2 (stereo not drawn)", "EC50, nM": 210}
{"molecule": "CC12CC3CC(C(=O)N[C@H]4CN5CCC4CC5)(C1)CC(c1ccccc1)(C3)C2 (stereo partly drawn)", "EC50, nM": 61}
{"molecule": "O=C(NC1CCNCC1)C12CC3CC(C1)CC(c1ccccc1)(C3)C2", "EC50, nM": 80}

----------
wild-type Ebola Zaire: recorded Ebola Zaire SI (CC50/EC50) for assorted compounds
metric.name: Ebola Zaire SI (CC50/EC50)

{"compound": "CCC12CC3CC(C(=O)N[C@H]4CC[C@H](N)CC4)(C1)CC(c1ccccc1)(C3)C2 (some centres unmarked) [Example A85]", "qualifier": "=", "observed": 112}
{"compound": "c1ccc(C23CC4CC(CC(CNC5CCNCC5)(C4)C2)C3)cc1 [Example C2]", "qualifier": "=", "observed": 25.3}
{"compound": "CC12CC3CC(C(=O)N[C@H]4CC[C@H](N)CC4)(C1)CC(c1ccccc1)(C3)C2.Cl (some centres unmarked) [Example A78]", "qualifier": "=", "observed": 268.2}
{"compound": "O=C(NC1CCNCC1)C12CC3CC(C1)CC(c1ccccc1)(C3)C2 [Example A63]", "qualifier": ">", "observed": 16}
{"compound": "CC12CC3CC(C(=O)N4CCCN(CCCN5CCCC5)CC4)(C1)CC(c1ccccc1)(C3)C2 (centres unmarked) [Example A43]", "qualifier": "=", "observed": 36.3}
{"compound": "CC12CC3CC(C(=O)N[C@H]4CN5CCC4CC5)(C1)CC(c1ccccc1)(C3)C2 (some centres unmarked) [Example A45]", "qualifier": ">", "observed": 28}
{"compound": "CCC12CC3CC(C(=O)NC4CCNCC4)(C1)CC(c1ccccc1)(C3)C2 (centres unmarked) [Example A80]", "qualifier": "=", "observed": 137}
{"compound": "OCCN1CCN(CC(O)COc2ccc(C34CC5CC(CC(C5)C3)C4)cc2)CC1 (centres unmarked) [Example D24]", "qualifier": "=", "observed": 45.6}
{"compound": "CC12CC3CC(C(=O)N4CCNCC4)(C1)CC(c1ccccc1)(C3)C2 (centres unmarked) [Example A71]", "qualifier": ">", "observed": 6}
{"compound": "CN1CCN(NC(=O)C23CC4CC(C)(C2)CC(c2ccccc2)(C4)C3)CC1 (centres unmarked) [Example A47]", "qualifier": ">", "observed": 8.5}
{"compound": "CC12CC3CC(C(=O)NC4CCNCC4)(C1)CC(c1ccccc1)(C3)C2 (centres unmarked) [Example A68]", "qualifier": "=", "observed": 134}
{"compound": "CC1CCN(CC(O)COc2ccc(C34CC5CC(CC(C5)C3)C4)cc2)CC1 (centres unmarked) [Example D21]", "qualifier": "=", "observed": 48.1}
{"compound": "O=C(NC1CCNCC1)C1C2CC3CC1CC(c1ccccc1)(C3)C2 (centres unmarked) [Example A81]", "qualifier": "=", "observed": 48.9}
{"compound": "CN(C)CCCNc1nc(C23CC4CC(CC(C4)C2)C3)cs1 [Example D29]", "qualifier": "=", "observed": 66.1}

----------
test: in vivo; conditions: male, CD-1, mouse, po, 10 mg/kg

{"compound": "CC12CC3CC(C(=O)N[C@H]4CC[C@H](N)CC4)(C1)CC(c1ccccc1)(C3)C2.Cl (stereo partly shown)", "units.text": "%", "bioavailability": 72}

----------
experiment: in vitro; details: human, microsomes
metric.name: half-life (h)

{"molecule": "CC12CC3CC(C(=O)NC4CCNCC4)(C1)CC(c1ccccc1)(C3)C2 (centres unmarked)", "metric.name": "half-life", "units.text": "h", "qualifier": "=", "observed": 3.12}
{"molecule": "CCC12CC3CC(C(=O)N[C@H]4CC[C@H](N)CC4)(C1)CC(c1ccccc1)(C3)C2 (some centres unmarked)", "metric.name": "half-life", "units.text": "h", "qualifier": ">", "observed": 2}
{"molecule": "CCC12CC3CC(C(=O)NC4CCNCC4)(C1)CC(c1ccccc1)(C3)C2 (centres unmarked)", "metric.name": "half-life", "units.text": "h", "qualifier": "=", "observed": 1.72}
{"molecule": "O=C(NC1CCNCC1)C12CC3CC(C1)CC(c1ccccc1)(C3)C2", "metric.name": "half-life", "units.text": "h", "qualifier": "=", "observed": 4.3}
{"molecule": "CC12CC3CC(C(=O)N[C@H]4CC[C@H](N)CC4)(C1)CC(c1ccccc1)(C3)C2.Cl (some centres unmarked)", "metric.name": "half-life", "units.text": "h", "qualifier": "=", "observed": 7.7}

----------
molecular target: hERG ion channel (Homo sapiens, UniProt Q12809)
Sequence (Q12809 whole entry): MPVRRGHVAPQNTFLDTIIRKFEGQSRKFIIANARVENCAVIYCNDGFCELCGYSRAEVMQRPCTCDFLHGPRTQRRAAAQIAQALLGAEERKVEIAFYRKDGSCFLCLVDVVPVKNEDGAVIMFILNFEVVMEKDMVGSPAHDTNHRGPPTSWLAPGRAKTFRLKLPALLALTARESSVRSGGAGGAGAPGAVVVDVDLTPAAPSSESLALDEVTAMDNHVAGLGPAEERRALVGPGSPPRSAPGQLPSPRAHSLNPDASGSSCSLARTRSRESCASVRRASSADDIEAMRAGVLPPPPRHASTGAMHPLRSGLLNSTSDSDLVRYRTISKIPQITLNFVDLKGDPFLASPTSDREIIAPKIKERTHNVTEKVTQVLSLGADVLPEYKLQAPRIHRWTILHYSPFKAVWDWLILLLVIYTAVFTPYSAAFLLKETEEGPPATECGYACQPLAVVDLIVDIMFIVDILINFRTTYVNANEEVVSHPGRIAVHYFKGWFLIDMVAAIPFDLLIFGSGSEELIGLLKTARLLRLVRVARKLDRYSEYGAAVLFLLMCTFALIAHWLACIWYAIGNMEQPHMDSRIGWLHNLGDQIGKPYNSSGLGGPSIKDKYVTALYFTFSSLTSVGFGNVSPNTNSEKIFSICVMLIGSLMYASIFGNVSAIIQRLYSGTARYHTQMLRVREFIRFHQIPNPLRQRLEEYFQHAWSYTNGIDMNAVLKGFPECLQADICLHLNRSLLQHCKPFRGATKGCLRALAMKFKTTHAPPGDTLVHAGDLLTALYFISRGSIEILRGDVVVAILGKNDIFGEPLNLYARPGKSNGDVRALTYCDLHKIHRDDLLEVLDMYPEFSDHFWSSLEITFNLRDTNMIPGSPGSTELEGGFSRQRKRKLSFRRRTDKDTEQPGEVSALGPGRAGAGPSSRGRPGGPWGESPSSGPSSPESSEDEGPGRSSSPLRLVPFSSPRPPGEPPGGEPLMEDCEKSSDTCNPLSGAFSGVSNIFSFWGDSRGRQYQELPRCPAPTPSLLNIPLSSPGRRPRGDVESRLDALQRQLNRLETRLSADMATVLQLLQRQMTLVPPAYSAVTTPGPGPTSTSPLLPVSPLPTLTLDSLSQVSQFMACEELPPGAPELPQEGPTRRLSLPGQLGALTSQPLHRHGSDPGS
pIC50: −log10 of the molar value.

{"compound": "CC12CC3CC(C(=O)N[C@H]4CC[C@H](N)CC4)(C1)CC(c1ccccc1)(C3)C2.Cl (stereo partly shown) [Example A78]", "pIC50": "< 5.00"}

----------
test: in vitro; conditions: monkey, microsomes
metric.name: half-life (h)

{"compound": "O=C(NC1CCNCC1)C12CC3CC(C1)CC(c1ccccc1)(C3)C2", "metric.name": "half-life", "qualifier": "=", "observed": 3.95}
{"compound": "CCC12CC3CC(C(=O)N[C@H]4CC[C@H](N)CC4)(C1)CC(c1ccccc1)(C3)C2 (some centres unmarked)", "metric.name": "half-life", "qualifier": "=", "observed": 1.4}
{"compound": "CC12CC3CC(C(=O)NC4CCNCC4)(C1)CC(c1ccccc1)(C3)C2 (centres unmarked)", "metric.name": "half-life", "qualifier": "=", "observed": 2.37}
{"compound": "CCC12CC3CC(C(=O)NC4CCNCC4)(C1)CC(c1ccccc1)(C3)C2 (centres unmarked)", "metric.name": "half-life", "qualifier": "=", "observed": 1.48}
{"compound": "CC12CC3CC(C(=O)N[C@H]4CC[C@H](N)CC4)(C1)CC(c1ccccc1)(C3)C2.Cl (some centres unmarked)", "metric.name": "half-life", "qualifier": ">", "observed": 2}

----------
experiment: in vitro; details: human, Caco-2

{"molecule": "CC12CC3CC(C(=O)N[C@H]4CC[C@H](N)CC4)(C1)CC(c1ccccc1)(C3)C2.Cl (stereo partly shown)", "Papp B→A / ×10⁻⁶ cm/s": 15.6}

----------
system: BDBV mucin-domain-deleted glycoprotein pseudotyped VSV; assay: microbe, parasite or virus in culture; assay type: cell-based, Bundibugyo ebolavirus; details: Vesicular stomatitis virus, Vero, read-out: EC50 BDBV

{"compound": "O=C(N1CCC2(CCN(Cc3ccccc3)C2)C1)C12CC3CC(C1)CC(c1ccccc1)(C3)C2 (centres unmarked)", "qualifier": "=", "EC50 / nM": 250}
{"compound": "O=C(NC1CCNCC1)C1C2CC3CC1CC(c1ccccc1)(C3)C2 (centres unmarked)", "qualifier": "=", "EC50 / nM": 110}
{"compound": "CN1CCC(N(C)C(=O)C23CC4CC(C2)CC(c2ccccc2)(C4)C3)CC1", "qualifier": "=", "EC50 / nM": 140}
{"compound": "CC12CC3CC(C(=O)N4CCCN(CCCN5CCCC5)CC4)(C1)CC(c1ccccc1)(C3)C2 (centres unmarked)", "qualifier": "=", "EC50 / nM": 80}
{"compound": "O=C(NC1CN(Cc2ccccc2)C1)C12CC3CC(C1)CC(c1ccccc1)(C3)C2", "qualifier": "=", "EC50 / nM": 300}
{"compound": "CC12CC3CC(C(=O)N[C@@H]4CN5CCC4CC5)(C1)CC(c1ccccc1)(C3)C2 (some centres unmarked)", "qualifier": "=", "EC50 / nM": 190}
{"compound": "CC12CC3CC(C(=O)NC4CNC4)(C1)CC(c1ccccc1)(C3)C2 (centres unmarked)", "qualifier": "=", "EC50 / nM": 290}
{"compound": "COC(=O)[C@H]1CN(C(=O)C23CC4CC(C)(C2)CC(c2ccccc2)(C4)C3)CCN1 (some centres unmarked)", "qualifier": ">", "EC50 / nM": 1000}
